Biological target: DRB4*0101 (DRw53)
Test: binding to purified HLA
readout: IC50 (nM)

GTVAALNNSIGVLGV [BPN' Y217L .70] : 31

A = SYPARYANAMAVGAT [B. lentus .160]
B = NGIEWAIANNMDVIN [BPN' Y217L .109]
(Q) Dear colleague, could you let me know whether A or B has the lower recorded IC50? Thanks. // caller expects the label of the chosen entry
(A) B
(B: 1070 nM, A: 8260 nM)
